Hello, the source for this data is patent US20190307754A1, in case you need it.

- Assay: Pharmacokinetics of single oral and IV dose in CD1 mice
- Format: in vivo
- Conditions: mouse, blood; CD1 mice, 10 mg/kg oral
Measured Attribute: C0 (ng/mL)
Lab book: enter the figure in ng/mL, no units written.

Give the measured C0 of C[C@@H]1CN(Cc2ncccn2)C[C@H]1c1cn2c(C3CCOCC3)ncc2c(=O)[nH]1 (single isomer, unassigned) . 2750

---

- Assay: Fourteen-day repeat-dose toxicity study in beagle dogs
- Assay type: in vivo, dog
- Conditions: female, beagle, dog, in vivo, po, 35 mg, dog, females, 35 mg, Day 14
Measured Attribute: Cmax (ng/mL)
The answer is to be given in ng/mL; state only the numeric part.

I have this compound here, C[C@@H]1CN(Cc2ncccn2)C[C@H]1c1cn2c(C3CCOCC3)ncc2c(=O)[nH]1 (single isomer, unassigned) , and I need its recorded Cmax. 10000

---

- Assay: Pharmacokinetics of single oral and IV dose in Sprague Dawley rats
- Format: in vivo
- Conditions: rat, blood; Sprague Dawley rats, 3 mg/kg IV; read-out: Vss obs
Measured Attribute: Vd (L/kg)
Report the figure in L/kg without appending any unit label.

Which Vd is reported for this compound? C[C@@H]1CN(Cc2ncccn2)C[C@H]1c1cn2c(C3CCOCC3)ncc2c(=O)[nH]1 (single isomer, unassigned) [Compound P3.1] 1.65

---

- Assay: Fourteen-day repeat-dose toxicity study in beagle dogs
- Assay type: in vivo, dog
- Conditions: female, beagle, dog, in vivo, po, 75 mg/kg/day, dog, females, 75 mg, Day 1; read-out: AUC0-24
Measured Attribute: AUC(0-t) (µg·h/mL)
The answer is to be given in µg·h/mL; state only the numeric part.

Field request: AUC(0-t) | item: C[C@@H]1CN(Cc2ncccn2)C[C@H]1c1cn2c(C3CCOCC3)ncc2c(=O)[nH]1 (single isomer, unassigned) 152

---

- Assay: Fourteen-day repeat-dose toxicity study in beagle dogs
- Format: in vivo, dog
- Conditions: male, beagle, dog, in vivo, po, 75 mg/kg/day, dog, males, 75 mg, Day 1; read-out: AUC0-24
Measured Attribute: AUC(0-t) (µg·h/mL)
Report as a plain number; the unit µg·h/mL is understood.

Given the entry C[C@@H]1CN(Cc2ncccn2)C[C@H]1c1cn2c(C3CCOCC3)ncc2c(=O)[nH]1 (single isomer, unassigned) [Compound P3.1] , report its measured AUC(0-t). 137

---

- Assay: Pharmacokinetics of single oral and IV dose in CD1 mice
- Format: in vivo
- Conditions: mouse, blood; CD1 mice, 3 mg/kg IV
Measured Attribute: half-life (min)
// return numeric value only (unit: min, not printed)

Record request: half-life value, item C[C@@H]1CN(Cc2ncccn2)C[C@H]1c1cn2c(C3CCOCC3)ncc2c(=O)[nH]1 (single isomer, unassigned) 37.8

---

- Assay: Pharmacokinetics of single oral and IV dose in CD1 mice
- Assay type: in vivo
- Conditions: mouse, blood; CD1 mice, 3 mg/kg IV
Measured Attribute: C0 (µg/mL)
Answer format: numeric, µg/mL implied, no suffix.

Given the entry C[C@@H]1CN(Cc2ncccn2)C[C@H]1c1cn2c(C3CCOCC3)ncc2c(=O)[nH]1 (single isomer, unassigned) [Compound P3.1] , report its measured C0. 4.43

---

- Assay: Plasma protein binding, rat
- Type: in vitro ADME
- Conditions: read-out: mean plasma fraction bound (converted)
Measured Attribute: fraction unbound
// keep it numeric: no unit symbol after the value

Fill blank: measured fraction unbound of the molecule C[C@@H]1CN(Cc2ncccn2)C[C@H]1c1cn2c(C3CCOCC3)ncc2c(=O)[nH]1 (single isomer, unassigned) is ____. 0.748
